Measured values drawn from ChEMBL document CHEMBL1154198 for this set.

test system: Trypanosoma brucei; assay: ST_JUDE: Cytotoxicity using luciferase to measure ATP as an indicator of the viability of Trypanosoma brucei; assay type: functional, organism-based
Catalogue of pEC50 readings, one per entry.
Please express pEC50 as -log10 of the molar concentration.

# annotated cases, reported pEC50 shown
{"molecule": "CC(C)CN1C(=O)c2ccccc2C(C(=O)Nc2cccc(C(F)(F)F)c2)C1c1cccs1 (stereo not given)", "recorded_number": 5.48}
{"molecule": "Cn1c(=O)c2c(-c3ccc(C(C)(C)C)cc3)n(-c3cc(Cl)ccc3O)cc2n(C)c1=O", "recorded_number": 5.17}
{"molecule": "Cc1ccc2c(c1)N(C)/C(=C/c1sc3ccccc3[n+]1CCO)S2", "recorded_number": 5.22}

Query: Return reported pEC50; argument: Cc1ccc2c(c1)S/C(=C\c1sc3ccccc3[n+]1C)N2CCO
Reply: 4.96
